Tested on: UACC-62 melanoma
Test: NCI-60 one-dose screen, 48 h (100 = growth as untreated, 0 = no growth, -100 = all killed)
Settings: 10 µM unless noted
This is part of a sample that, as a whole, favours compounds with a hit. Of some 83,000 tested, about 20% had one in any assay.
Catalogue of growth readings, one per entry.
Use % as the unit, but write only the number.

As a guide, the following entries are already answered.
Look at this molecule and give its reported growth. Cc1[nH]nc2ccc(-c3nc4cnc(N5CCN(C)CC5)cn4c3Nc3ccc(F)cc3Br)cc12
17.9

What value of growth has been reported for the following molecule? N#Cc1c(NC(=O)c2ccc(F)c(Cl)c2)sc2c1CCC(=O)C2
-69.7

Which measured growth value corresponds to Cc1ccc(Cc2cnc(NC(=O)/C(C#N)=C/c3ccc(-c4ccc(Cl)cc4)o3)s2)cc1 ?
95.4

Returns the measured growth for the input molecule. Input: CC(=O)Nc1nc2c(s1)C1=CC[C@H]3[C@@H]4CC[C@H](C(C)=O)[C@@]4(C)CC[C@@H]3[C@@]1(C)CC2
73.7

// next entry
I have this molecule here, O=C(/C=C/Nc1ccc(S(=O)(=O)O)cc1)c1ccc(F)cc1 , and I need its recorded growth.
93.5

###

System: 786-0 renal
Test: NCI-60 one-dose screen, 48 h (100 = growth as untreated, 0 = no growth, -100 = all killed)
Conditions: 10 µM unless noted
This is part of a sample that, as a whole, favours compounds with a hit. Of some 83,000 tested, about 20% had one in any assay.
Record y whenever growth is at 80% or higher; record n when lower.

Some solved entries appear below for comparison.
Could you tell me if the measured growth of C(=C(\C1=NCCN1)n1cnc2ccccc21)/c1cccc2ccccc12 reaches 80% or more?
y

hey, is growth for this one >= 80%? O=S(=O)(Nc1ccc(-n2cnc3cc(-c4ccc(O)cc4)ccc32)cc1)C1CC1
y

Textbook exercise: given the entry N#C/C(=C\c1ccc(N2CCCCC2)cc1)C(=O)Nc1sc2c(c1C#N)CCC2 , state whether its growth is greater than or equal to 80%.
y

Item C=CCn1c(SCC(=O)Nc2cccc(C(=O)/C=C/c3ccc(C)cc3)c2)nc2ccccc2c1=O with growth of 80% or above?
y

Is the recorded value of growth equal to or greater than 80% for this molecule? Oc1ccc(CSc2nnc(-c3cnccn3)n2-c2ccccc2)c2cccnc12
n

Can COc1ccc(/C=N/Nc2nc(Nc3ccccc3)nc(Nc3ccc(S(N)(=O)=O)cc3)n2)cc1 be said to have growth at or above 80%?
n

Continuing:
hey, is growth for this one >= 80%? CCOP(=O)(OCC)OC[C@]12CCC(C)(C)C[C@H]1C1=CC[C@@H]3[C@@]4(C)C/C(=C\c5cccnc5)[C@H](OP(=O)(OCC)OCC)C(C)(C)[C@@H]4CC[C@@]3(C)[C@]1(C)CC2
n

Is it the case that CS(=O)(=O)c1ccc(-c2nn(-c3ccccc3)cc2/C=N/NC(=O)c2ccncc2)cc1 has growth reaching or exceeding 80%?
y

Quick check, growth >= 80%? COc1ccc([C@H]2[C@H](O)C(=O)N2c2cc(OC)c(OC)c(OC)c2)cc1
n

Hello, I need to know if COc1ccc(-c2no[n+]([O-])c2Nc2ccccc2Br)cc1 has measured growth not below 80%. Thanks!
y

# bool: growth of COc1ccc(/C=C/C(=O)c2nnn(-c3ccc(Br)cc3)c2C)cc1OC >= 80%
y

Answer whether growth of CC[C@]12C=CCN3CC[C@]4(C(=C(C(=O)OC)C1)Nc1cc5c(cc14)[C@@H]1[C@H](O5)[C@@H](O)[C@@]4(CC)CC(C(=O)OC)=C5Nc6cc(OC)ccc6[C@@]56CCN1[C@@H]46)[C@@H]32 is greater than or equal to 80%.
n
